- test.details: TOR pathway RPL19A-GFP modulators, concentration series – cell-based, S. cerevisiae, flow cytometry, MLPCN hits, dose response (AID 2740);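 further: background is signal of the same compound in parental non-GFP s288c yeast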
- experimental.context: S. cerevisiae RPL19A-GFP strain, flow cytometry fluorescence, 3 h; at 33 µM (top of the series)
Activity calls are given as the source filed them.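 How the source made its calls: active means compounds whose fitted half-maximal concentration for changing the GFP signal is at or below a set limit; inactive means the rest.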
experimental.endpoint: GFP fluorescence, lower = active (kMESF (background-subtracted))

- chem.smiles: "O=C1Nc2ccc(Br)cc2/C1=C/C(=O)c1ccc2c(c1)OCO2"
  assay.value: "40.6 (inactive)"

Batch request: GFP fluorescence, lower = active (kMESF (background-subtracted)) per item, same order as input.
1. O=C1C(Cl)=C(N2CCN(Cc3ccccc3)CC2)C(=O)N1c1ccccc1
2. CC1(C(=O)NC(=S)NNC(=O)c2ccncc2)CCCCC1

1: 40.2 (inactive); 2: 39.9 (inactive)
